Target: ERR1 (also known as ERR-α or ERR-1) (Homo sapiens, UniProt P11474)
Sequence (P11474 193-421 limits assumed, species assumed): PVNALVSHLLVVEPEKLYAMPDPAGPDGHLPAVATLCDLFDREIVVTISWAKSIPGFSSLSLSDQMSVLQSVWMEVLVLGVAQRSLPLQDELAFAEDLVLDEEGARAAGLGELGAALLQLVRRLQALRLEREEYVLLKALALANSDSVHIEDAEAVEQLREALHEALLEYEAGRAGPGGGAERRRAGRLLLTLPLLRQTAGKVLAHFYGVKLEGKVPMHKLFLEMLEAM
Assay: TR-FRET assay (disruption of co-activator peptide binding to ERR1 LBD)
Details: 6 nM 6His-ERR1LBD, 6 nM GST-SRC-2 peptide; average of 3 independent experiments
outcomeMeasure: log10(EC50) (log10 of the value in nM)

# compound, reportedMeasurement
measured = [
    ("N[C@@H](CO)CN1C(=O)S/C(=C\\c2ccc3c(cnn3Cc3ccc(Cl)cc3C(F)(F)F)c2)C1=O [Compound 167]", 1.36),
    ("COc1ccc(Cn2ncc3cc(/C=C4\\SC(=O)N(C5CCNCC5)C4=O)ccc32)c(C(F)(F)F)c1 [Compound 26]", 1.83),
    ("CC(C)N1C[C@@H](F)[C@H](N2C(=O)S/C(=C\\c3ccc4c(cnn4Cc4ccc(Cl)cc4C(F)(F)F)c3)C2=O)C1 (relative stereo) [Compound 321]", 1.63),
    ("O=C(O)c1ccc(S(=O)(=O)NCCN2C(=O)S/C(=C\\c3ccc4c(cnn4Cc4ccc(Cl)cc4C(F)(F)F)c3)C2=O)o1 [Compound 421]", 1.53),
    ("N=C(N)NOCCN1C(=O)S/C(=C\\c2ccc3c(ccn3Cc3ccc(Cl)cc3C(F)(F)F)c2)C1=O [Compound 257]", 1.87),
    ("CCN1CC[C@H](N2C(=O)S/C(=C\\c3ccc4c(cnn4Cc4ccc(Cl)cc4C(F)(F)F)c3)C2=O)C1 [Compound 119]", 1.60),
    ("COc1ccc(Cn2nc(C)c3cc(/C=C4\\SC(=O)N(CCN5CCOCC5)C4=O)ccc32)c(C(F)(F)F)c1 [Compound 20]", 1.15),
    ("O=C1S/C(=C\\c2ccc3c(cnn3Cc3ccc(C(F)(F)F)cc3C(F)(F)F)c2)C(=O)N1C[C@H]1CCCN1 [Compound 82]", 1.91),
    ("COC(=O)CN1C(=O)S/C(=C\\c2ccc3c(cnn3[C@@H]3CCc4cc(Cl)ccc43)c2)C1=O [Compound 177]", 3.78),
    ("NC(=O)CN1CC[C@@H](CN2C(=O)S/C(=C\\c3ccc4c(cnn4Cc4ccc(Cl)cc4C(F)(F)F)c3)C2=O)C1 [Compound 299]", 1.57),
    ("O=C(O)CN1CCC[C@H]1CN1C(=O)S/C(=C\\c2ccc3c(cnn3Cc3ccc(Cl)cc3C(F)(F)F)c2)C1=O [Compound 151]", 1.48),
    ("CCN(CC)CCN1C(=O)S/C(=C\\c2ccc3c(cnn3Cc3ccc(OC)cc3C(F)(F)F)c2)C1=O [Compound 18]", 1.30),
    ("O=C1S/C(=C\\c2ccc3c(cnn3Cc3ccc(Cl)cc3C(F)(F)F)c2)C(=O)N1CCN1CC[C@H](F)C1 [Compound 2]", 2.27),
    ("O=C1S/C(=C\\c2ccc3c(cnn3Cc3ccc(Cl)cc3C(F)(F)F)c2)C(=O)N1C1CCCNC1 (centres unmarked) [Compound 124]", 1.71),
]

Recorded values, source patent US8796256B2.
